Test system: 299254-011-R-J1-PDC complex spheroid viability;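 also: spheroids exposed to drugs for one week before measurement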
method-description: Anticancer human tumor 299254-011-R-J1-PDC patient-derived melanoma cell line growth inhibition [POLQ]
experimental-conditions: curve of first compound; second compound 3.16 µM
Procedure: Multicellular complex tumor spheroid response to Polymerase (POL) inhibitors (novobiocin, ART-558, RP6685) in combination with a variety of drugs and investigational agents in selected tumor cell lines The POL inhibitors (novobiocin, ART-558, and RP6685) were evaluated both individually and in combination with standard of care and investigational anticancer small molecules within a complex spheroid model of solid tumors. . […]
quantity-measured: pIC50
Please note pIC50 is a logarithmic value: minus log10 of concentration in mol/L. Answer with that number alone.

Worked examples follow.
{"columns": ["molecule", "observed-measurement"],
 "data": [
  ["CC1COCCN1c1cc(C2(O)CC3CCC(C2)O3)c2cnn(-c3ccn[nH]3)c2n1 (stereo not given) + COC1C(OC(N)=O)C(O)C(Oc2ccc3c(O)c(NC(=O)c4ccc(O)c(CC=C(C)C)c4)c(=O)oc3c2C)OC1(C)C", 6.80],
  ["CC1COCCN1c1cc(-c2ccnn2C)c2ccnc(-c3ccn[nH]3)c2n1 (stereo not given) + Nc1ccc(C#CCN(C(=O)Cc2ncc(C(F)(F)F)cc2C(F)(F)F)c2ccc(F)cc2)nn1", 6.75]
]}

# ---- query molecule ----
Incoming: Give 299254-011-R-J1-PDC complex spheroid viability pIC50 for CC1COCCN1c1cc(C2(O)CC3CCC(C2)O3)c2cnn(-c3ccn[nH]3)c2n1 (stereo not given) + Cc1cccc(N(C)C(=O)C2C(O)CCN2c2nc(C)cc(C(F)(F)F)c2C#N)c1
Outgoing: 6.77

src = PubChem BioAssay AID1963849
